As shown below, each of these compounds has a reported IC50 value.
# target entity: Human FAAH (MBPΔTMhFAAH) (Homo sapiens, UniProt O00519)
# Sequence (O00519 30-579 limits assumed): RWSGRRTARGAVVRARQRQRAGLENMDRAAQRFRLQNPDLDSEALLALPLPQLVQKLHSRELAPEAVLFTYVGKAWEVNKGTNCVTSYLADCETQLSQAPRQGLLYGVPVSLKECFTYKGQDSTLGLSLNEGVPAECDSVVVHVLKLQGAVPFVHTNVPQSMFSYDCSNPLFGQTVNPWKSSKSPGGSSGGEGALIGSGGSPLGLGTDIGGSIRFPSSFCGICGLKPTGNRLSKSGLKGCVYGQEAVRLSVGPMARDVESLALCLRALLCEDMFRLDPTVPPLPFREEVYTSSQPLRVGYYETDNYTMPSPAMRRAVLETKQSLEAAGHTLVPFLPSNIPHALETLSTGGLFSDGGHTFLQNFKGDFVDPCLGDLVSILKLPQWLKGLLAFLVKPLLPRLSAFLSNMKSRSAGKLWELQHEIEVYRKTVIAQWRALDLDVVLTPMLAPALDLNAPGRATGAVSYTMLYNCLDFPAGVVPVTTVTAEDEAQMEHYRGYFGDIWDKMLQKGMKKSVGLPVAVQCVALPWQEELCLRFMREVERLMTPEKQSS
# assay details: Fluorescent assay protocol for hFAAH
# experimental conditions: human FAAH (MBP fusion, ΔTM), procedure as for rFAAH

compound	IC50
N#Cc1cccc(OC(=O)N2CCN(C(c3ccc(F)cc3)c3ccc(F)cc3)CC2)c1	> 1000 nM
CC1CN(c2ccccc2)CCN1C(=O)Oc1cccc(N2CCS(=O)(=O)CC2)c1 (centres unmarked)	> 1000 nM
N#Cc1cc(O)cc(OC(=O)N2CCC(C(c3ccccc3)c3ccccc3)CC2)c1	> 1000 nM
C[C@@H]1CN(C(=O)Nc2cccc(-c3cccc(C(N)=O)c3)c2)CCN1Cc1ccc2ccccc2n1	> 1000 nM
Cc1ccc(S(=O)(=O)N2CCN(C(=O)Oc3ccc(-c4ccc(F)cc4)cc3O)CC2)cc1	> 1000 nM
O=C(Oc1cccc(Cl)n1)N1CCC(OC(c2ccccc2)c2ccccc2)CC1	> 1000 nM
NC(=O)c1cccc(-c2cccc(NC(=O)N3CCN(Cc4ccc5ccccc5n4)CC3)c2)c1	10 to 100 nM
C[C@H]1CN(C(=O)n2cnc(-c3ccccc3)c2)CCN1Cc1cccc(-c2ccccc2)c1	110 to 1000 nM
NC(=O)c1cccc(-c2cccc(NC(=O)N3CCC(c4ccccc4)CC3)c2)c1	10 to 100 nM
N#Cc1ccc(F)c(OC(=O)N2CCC(Cc3ccccc3)CC2)c1	10 to 100 nM
NC(=O)c1cccc(-c2cccc(NC(=O)N3CCN(Cc4ccc(-c5ccccc5)cc4)CC3)c2)c1	10 to 100 nM
O=C(N1CCN(C(c2ccccc2)c2ccccc2)CC1)n1cnc(-c2ccccc2)c1	110 to 1000 nM
N#Cc1ccnc(OC(=O)N2CCN(C3c4ccccc4-c4ccccc43)CC2)c1	> 1000 nM
N#Cc1cccc(OC(=O)N2CCC(Cc3ccccc3)CC2)c1	10 to 100 nM
CC(C)C(c1ccccc1)N1CCN(C(=O)Oc2cccc(C#N)c2)CC1 (centres unmarked)	> 1000 nM
CC(c1ccccc1)N1CCN(C(=O)Oc2cccc(C#N)c2)CC1 (centres unmarked)	10 to 100 nM
O=C(N1CCN(C(c2ccc(F)cc2)c2ccc(F)cc2)CC1)n1nnnc1Cc1ccccc1	110 to 1000 nM

###

# target entity: Human FAAH (MBPΔTMhFAAH) (Homo sapiens, UniProt O00519)
# assay details: Fluorescent assay protocol for hFAAH
# experimental conditions: human FAAH (MBP fusion, ΔTM), procedure as for rFAAH
As shown below, each of these molecules has a reported IC50 value.

molecule	IC50
N#Cc1cccc(OC(=O)N2CCC(OC(c3ccccc3)c3ccccc3)CC2)c1 [Example 58]	> 1000 nM
COc1ccc(C#N)cc1OC(=O)N1CCC(S(=O)(=O)c2ccc(Br)cc2)CC1 [Example 62]	10 to 100 nM
O=C(N1C[C@@H]2C[C@H]1CN2Cc1cccc(-c2ccccc2)c1)n1cnc(Br)c1 [Example 100]	10 to 100 nM
N#Cc1cccc(OC(=O)N2CCN(C3c4ccccc4-c4ccccc43)CC2)c1 [Example 41]	110 to 1000 nM

###

# target entity: Human MAGL (hMAGL) (Homo sapiens)
# Construct: hexahistidine; made in house; host or cells: E. coli
# Sequence (Q99685 1-303): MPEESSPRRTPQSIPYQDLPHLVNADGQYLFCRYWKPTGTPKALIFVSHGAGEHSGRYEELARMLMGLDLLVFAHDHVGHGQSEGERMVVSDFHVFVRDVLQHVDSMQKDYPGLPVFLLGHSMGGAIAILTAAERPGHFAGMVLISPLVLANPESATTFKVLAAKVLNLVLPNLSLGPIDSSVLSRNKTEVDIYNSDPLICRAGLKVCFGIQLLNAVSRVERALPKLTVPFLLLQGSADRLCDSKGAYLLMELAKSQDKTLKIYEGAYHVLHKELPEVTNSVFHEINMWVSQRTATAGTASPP
# assay details: Fluorescent assay protocol for hMAGL (AHMMCE substrate)
# Format: biochemical
# experimental conditions: recombinant human MAGL, AHMMCE substrate, 15 min preincubation; read-out: IC50 hMAGL

molecule	target entity	IC50
O=C(N1CCN(C(c2ccc(F)cc2)c2ccc(F)cc2)CC1)n1nnnc1Cc1ccccc1	Human MAGL (hMAGL) (Homo sapiens)	> 1 µM
N#Cc1ccc(F)c(OC(=O)N2CCC(Cc3ccccc3)CC2)c1	Human MAGL (hMAGL) (Homo sapiens)	> 1 µM
N#Cc1cccc(-c2cncc(NC(=O)N3CCC(c4ccccc4)CC3)c2)c1	Human MAGL (hMAGL) (Homo sapiens)	> 1 µM
NC(=O)c1cccc(-c2cccc(NC(=O)N3CCN(Cc4cccc(Oc5ccccc5)c4)CC3)c2)c1	Human MAGL (hMAGL) (Homo sapiens)	> 1 µM
COC(=O)c1ncn(C(=O)N2CCC(OC(c3ccc(F)cc3)c3ccc(F)cc3)CC2)n1	Human MAGL (hMAGL) (Homo sapiens)	> 1 µM
NC(=O)c1cccc(-c2cccc(NC(=O)N3CCN(c4ccccc4)CC3)c2)c1	Human MAGL (hMAGL) (Homo sapiens)	> 1 µM
C[C@H]1CN(Cc2cccc(Oc3ccccc3)c2)CCN1C(=O)Nc1cccc(-c2cccc(C(N)=O)c2)c1	Human MAGL (hMAGL) (Homo sapiens)	> 1 µM
Cc1ccc(S(=O)(=O)N2CCN(C(=O)Oc3ccc(Br)cc3)CC2)cc1	Human MAGL (hMAGL) (Homo sapiens)	0.01 to 0.1 µM
O=C(Nc1ccccc1)N1CC(OCc2ccc(Cl)cc2)C1	Human MAGL (hMAGL) (Homo sapiens)	> 1 µM
O=C(N1CC(N2CCC(c3ccccc3)CC2)C1)n1cncn1	Human MAGL (hMAGL) (Homo sapiens)	0.01 to 0.1 µM
O=C1CC2(CCC(C(=O)n3cnc(Br)c3)CC2)Oc2ccccc21 (stereo not shown)	Human MAGL (hMAGL) (Homo sapiens)	> 1 µM
N#Cc1cccc(-c2cccc(NC(=O)N3C[C@@H]4C[C@H]3CN4Cc3ccc4ccccc4n3)c2)c1	Human MAGL (hMAGL) (Homo sapiens)	> 1 µM
O=C(Oc1ccccc1)N1C[C@@H]2C[C@H]1CN2Cc1cccc(-c2ccccc2)c1	Human MAGL (hMAGL) (Homo sapiens)	> 1 µM
C[C@H]1CN(C(=O)n2cnc(-c3ccccc3)c2)CCN1Cc1cccc(-c2ccccc2)c1	Human MAGL (hMAGL) (Homo sapiens)	> 1 µM
O=C(Oc1cccc(N2CCS(=O)(=O)CC2)c1)N1CCN(Cc2cccc(Oc3ccccc3)c2)CC1	Human MAGL (hMAGL) (Homo sapiens)	0.01 to 0.1 µM
O=C(N1C[C@@H]2C[C@H]1CN2Cc1cccc(-c2ccccc2)c1)n1cnc(-c2ccccc2)c1	Human MAGL (hMAGL) (Homo sapiens)	> 1 µM
N#Cc1cc(O)cc(OC(=O)N2CCN(C(c3ccccc3)c3ccccc3)CC2)c1	Human MAGL (hMAGL) (Homo sapiens)	> 1 µM
N#Cc1cccc(-c2cccc(NC(=O)N3CCC4(CC3)CC(=O)c3ccccc3O4)c2)c1	Human MAGL (hMAGL) (Homo sapiens)	> 1 µM
O=C(N1CC(Sc2ccc(Br)cc2)C1)n1cncn1	Human MAGL (hMAGL) (Homo sapiens)	0.01 to 0.1 µM
COc1ccc(C#N)cc1OC(=O)N1CCC(S(=O)(=O)c2ccc(Br)cc2)CC1	Human MAGL (hMAGL) (Homo sapiens)	> 1 µM
O=C(Oc1cccc(N2CCS(=O)(=O)CC2)c1)N1CCN(Cc2ccc3ccccc3n2)CC1	Human MAGL (hMAGL) (Homo sapiens)	0.11 to 1 µM
N#Cc1cccc(OC(=O)N2CC(OCc3ccc(Cl)cc3)C2)c1	Human MAGL (hMAGL) (Homo sapiens)	0.11 to 1 µM
C[C@@H]1CN(C(=O)Nc2cccc(-c3cccc(C(N)=O)c3)c2)CCN1Cc1ccc2ccccc2n1	Human MAGL (hMAGL) (Homo sapiens)	> 1 µM
NC(=O)c1cccc(-c2cccc(NC(=O)N3CCN(c4ccccn4)CC3)c2)c1	Human MAGL (hMAGL) (Homo sapiens)	> 1 µM
NC(=O)c1cccc(OC(=O)N2CC(OCc3ccc(Cl)cc3)C2)c1	Human MAGL (hMAGL) (Homo sapiens)	0.11 to 1 µM
O=C(Oc1cccc(N2CCS(=O)(=O)CC2)c1)N1CCN(c2ccccc2)CC1	Human MAGL (hMAGL) (Homo sapiens)	0.01 to 0.1 µM
O=C(Oc1cccc(C(F)(F)F)c1)N1CC(OCc2ccc(Cl)cc2)C1	Human MAGL (hMAGL) (Homo sapiens)	0.11 to 1 µM
O=C(Oc1cccc(Cl)n1)N1CCC(OC(c2ccccc2)c2ccccc2)CC1	Human MAGL (hMAGL) (Homo sapiens)	0.01 to 0.1 µM
CC(C)C(c1ccccc1)N1CCN(C(=O)Oc2cccc(C#N)c2)CC1 (stereo not shown)	Human MAGL (hMAGL) (Homo sapiens)	> 1 µM
COC(=O)c1cccc(OC(=O)N2CCC(=C(c3ccccc3)c3ccccc3)CC2)c1	Human MAGL (hMAGL) (Homo sapiens)	> 1 µM
C[C@H]1CN(Cc2cccc(Oc3ccccc3)c2)CCN1C(=O)n1cnc(Br)c1	Human MAGL (hMAGL) (Homo sapiens)	> 1 µM
O=C(N1CC(N2CCC(c3ccccc3)CC2)C1)n1cnc(-c2ccccc2)c1	Human MAGL (hMAGL) (Homo sapiens)	> 1 µM
Cc1ccc(S(=O)(=O)N2CCN(C(=O)Oc3c(F)cccc3F)CC2)cc1	Human MAGL (hMAGL) (Homo sapiens)	0.11 to 1 µM
N#Cc1cccnc1OC(=O)N1CCN(C2c3ccccc3-c3ccccc32)CC1	Human MAGL (hMAGL) (Homo sapiens)	0.01 to 0.1 µM
